Source listed as paper PMC5540273.

Test system: NIM1;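 also: KINOMEscan kinase panel screen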
Construct: gene MGC42105
Settings: concentration: 1 μM, replicates: in singlicate; n = 1
quantityName: %Inh (%)
Response body: numeric value in %, unit text excluded.

Worked examples follow.
- compound: "O=C(NC1CCN(c2ccnc(Nc3ccc(F)cc3)n2)C1)c1cc2ccccc2s1 (stereo not drawn) [GSK1379716]"
  %Inh / %: 34
- compound: "CC(=O)Nc1nc2cnc(Nc3cc(NC(=O)c4cccc(C5(C#N)CC5)c4Cl)ccc3C)nc2s1"
  %Inh / %: 6
- compound: "Fc1ccc(-c2ncn(C3CCNCC3)c2-c2ccnc(Oc3ccc(-c4ccccc4)cc3)n2)cc1 [SB-245391]"
  %Inh / %: 42
- compound: "COc1cccc(C2=C(Nc3ccc(Cl)c(C(=O)O)c3)C(=O)NC2=O)c1 [SB-390769]"
  %Inh / %: 100

What does the record list as %Inh for Cn1cc(-c2ccc3c(c2)CCN3C(=O)Cc2cccc(F)c2)c2c(N)ncnc21 [GSK2603358] ?
24

Look up %Inh: `Cn1cc(-c2[nH]c3cc(NC(=O)[C@H](N)C4CCCCC4)cc4c3c2C=NNC4=O)cn1`
96.8

Need %Inh, item CC(C)(C)c1ccc2nccc(Nc3cccc(O)c3)c2c1 [GW856795]
30

I am curious: what %Inh value has been reported for Cc1ccc(F)c(C(=O)Nc2cccc(-c3nn4ccccc4c3-c3ccnc(Nc4cccc(F)c4)n3)c2)c1F [GSK361061] ?
0

What does the data say about its %Inh? Entry: COc1ccc(Nc2nccc(N3CCC(NC(=O)Nc4cccc(OC)c4)C3)n2)cc1 (stereo not drawn) [GSK1379742]
22

For the compound shown here, `Cc1ccc(C(=O)N2CC[C@@H](O)C2)cc1-n1c(C)cc(OCc2ccc(F)cc2F)c(Br)c1=O` , give the reported %Inh.
0

What value of %Inh has been reported for the following compound? Cl.Cl.NCC(NC(=O)c1cc(-c2ccccc2)c(-c2ccnc3[nH]ccc23)s1)c1ccccc1 (stereo not drawn) [GSK1321561]
50

What measured %Inh goes with CCn1c(-c2nonc2N)nc2c(C#CC(C)(C)O)ncc(OCCCCN)c21.O=C(O)C(F)(F)F.O=C(O)C(F)(F)F [GSK507274] ?
29
